Would you kindly list activity change, negative = inhibition for each of these compounds?
protocol-summary: AP1 Signaling Pathway (AID 357);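 note: ME-180 reporter cells stimulated with EGF at its EC50 level; % is set by controls: 0 for no effect and ±100 for the full control effect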
condition-parameters: ME-180 (cervical carcinoma) AP-1-bla reporter, EGF-induced, beta-lactamase ratio, 5 h; at 7.69 µM (top of the series) unless noted
Records with an inconclusive call do not appear. Calls of active or inactive are those of the source. Calls come from the whole dose curve; as a rule, active = well fitted curve in either direction with a large enough effect (not every such curve was filed as active); inconclusive = small, poorly fitted or top-dose-only effect, or another doubt; inactive = flat fitted curve, though single readings scatter.

Input O=C(CCN1CCCCC1)N1CCc2c([nH]c3ccccc23)[C@H]1c1cccnc1 , output reported activity change, negative = inhibition.
4.71% (inactive)

Input S=C1NCN2CCN(CC2)CNC(=S)C(=S)NCN2CCN(CC2)CNC1=S , output reported activity change, negative = inhibition.
3.32% (inactive)

Input Cc1cc2c(SCc3ccccc3Cl)nc(N)nc2nc1C , output reported activity change, negative = inhibition.
-22.2% (inactive)

Input Cc1cnc2cc(Cl)ccc2c1SCC(=O)O , output reported activity change, negative = inhibition.
-8.88% (inactive)

Input CC1(C)[C@@H]2CC[C@]1(C)[C@@H](OC(=O)/C=C\c1ccccc1)C2 , output reported activity change, negative = inhibition.
5.51% (inactive)

Input NC[C@H]1O[C@H](n2cnc3c(N)ncnc32)C[C@@H]1O , output reported activity change, negative = inhibition.
-8.42% (inactive)

Input Nc1ccc(S(=O)(=O)c2ccc(NC(=O)c3cccnc3)cc2)cc1 , output reported activity change, negative = inhibition.
-0.755% (inactive)

Input O=C(O)CCSc1ncnc2nc[nH]c12 , output reported activity change, negative = inhibition.
15.6% (inactive)

Input CN(C)CCCn1cnc2cc(Cl)c(Cl)cc21 , output reported activity change, negative = inhibition.
1.9% (inactive)

Input Cc1c(Cl)cccc1NC(=O)C[C@H]1Sc2ccccc2NC1=O , output reported activity change, negative = inhibition.
-17.8% (inactive)

Input C(=Nc1cnc2ccccc2c1)c1ccc2ccccc2n1 , output reported activity change, negative = inhibition.
-2.4% (inactive)

Input C/C(=N/NC1=NCCN1)c1cn(C2=NCCN2)nc1C , output reported activity change, negative = inhibition.
6.21% (inactive)

Input NC(=O)N[C@H](CC(=O)O)C(=O)O , output reported activity change, negative = inhibition.
-2.2% (inactive)

Input CC(=O)Nc1ccc2c(c1)C(=Nc1ccc(C(=O)O)cc1)c1ccccc1-2 , output reported activity change, negative = inhibition.
2.47% (inactive)

Input FC(F)(F)c1cc(NC(=S)N2c3ccccc3-n3cccc3[C@H]2c2cccnc2)cc(C(F)(F)F)c1 , output reported activity change, negative = inhibition.
-2.69% (inactive)

Input N#Cc1c(NC(=O)CCC(=O)O)ccc2ccccc12 , output reported activity change, negative = inhibition.
-3.75% (inactive)

Input N/C(=N\O)c1cn([C@@H]2O[C@@H](CO)[C@H](O)[C@@H]2O)c2ncnc(NO)c12 , output reported activity change, negative = inhibition.
5.84% (inactive)

Input O=C(O)[C@H](CCc1ccccc1)N1C(=O)c2ccccc2C1=O , output reported activity change, negative = inhibition.
-11.9% (inactive)

Input O[C@@H](c1cc(C(F)(F)F)nc2c(Cl)cc(Cl)cc12)[C@@H]1CCCCN1 , output reported activity change, negative = inhibition.
14.2% (inactive)

Input N#Cc1ccc(CN2CC3(CCN(C(=O)c4cc(C(F)(F)F)cc(C(F)(F)F)c4)CC3)C2)cc1 , output reported activity change, negative = inhibition.
-21.3% (inactive)

Input COc1ccc(C[C@H](O)CN2CCOCC2)cc1 , output reported activity change, negative = inhibition.
-3.04% (inactive)

Input CSc1nc(C)cc(Nc2ccc(O)c(CN3CCCCC3)c2)n1 , output reported activity change, negative = inhibition.
-6.95% (inactive)

Input N=C(N)SCCON1C(=O)c2ccccc2C1=O , output reported activity change, negative = inhibition.
5.96% (inactive)

Input CN(C)CCN1C(=O)CC[C@]2(C)C1=CC[C@@H]1[C@@H]2CC[C@]2(C)[C@H]1CC[C@]2(C)O , output reported activity change, negative = inhibition.
3.79% (inactive)

Input CCc1c(O)c2c(c(O)c1C(C)=O)C(=O)c1c(cc(O)c(C(=O)O)c1C(=O)O)C2=O , output reported activity change, negative = inhibition.
-2.41% (inactive)

Input C[C@@H](C(=O)O)c1ccc(C[C@@H]2CCCC2=O)cc1 , output reported activity change, negative = inhibition.
14.5% [at 38 µM] (inactive)

Input C[C@@H](CNC(N)=O)NC(N)=O , output reported activity change, negative = inhibition.
4.39% (inactive)

Input S=C1SCN(C2CCCCCCCCCCC2)CN1C1CCCCCCCCCCC1 , output reported activity change, negative = inhibition.
-6.27% (inactive)

Input Cc1cc2ccc(OC(=O)c3ccc(N=C(N)N)cc3)cc2oc1=O , output reported activity change, negative = inhibition.
5.35% (inactive)

Input c1ccc2sc(SCN(C3CCCCC3)C3CCCCC3)nc2c1 , output reported activity change, negative = inhibition.
4.99% (inactive)

Input CC(C)=C[C@H]1[C@@H](C(=O)Oc2ccccc2C(C)C)C1(C)C , output reported activity change, negative = inhibition.
9.15% (inactive)

Input CC(C)(C[C@@]1(C)NC(=O)NC1=O)OCc1ccccc1 , output reported activity change, negative = inhibition.
-2.92% (inactive)

Input O=C(O)C(Cc1ccccc1-c1ccccc1)C(=O)O , output reported activity change, negative = inhibition.
12.3% (inactive)

Input C=CCN1CCc2c(cc(O)c(O)c2Cl)[C@H](c2ccccc2)C1 , output reported activity change, negative = inhibition.
-17.1% [at 38 µM] (inactive)

Input O=C(Nc1cccc(Cl)c1)Nn1cnnc1 , output reported activity change, negative = inhibition.
0.989% (inactive)

Input CC(C)CNc1nc(N)[nH]c(=O)c1NC=O , output reported activity change, negative = inhibition.
9% (inactive)

Input O=C(O)[C@H]1CCCC[C@@H]1c1c2ccc(=O)c(O)c-2oc2c(O)c(O)ccc12 , output reported activity change, negative = inhibition.
-17.7% (inactive)

Input O=NN(Cc1ccc(Cl)cc1)[C@@H](C(=O)O)c1ccccc1 , output reported activity change, negative = inhibition.
15.1% (inactive)

Input C[C@H](C(=O)c1ccncc1)c1ccccn1 , output reported activity change, negative = inhibition.
0.391% (inactive)

Input NNC(=O)CS(=O)(=O)Nc1ncccn1 , output reported activity change, negative = inhibition.
-0.0437% (inactive)

Input S=c1nc(-c2nc(=S)[nH]c3c2CCCCCCCCCC3)c2c([nH]1)CCCCCCCCCC2 , output reported activity change, negative = inhibition.
-8.81% (inactive)

Input Nc1ccc(Cc2ccc(N)c(C(=O)O)c2)cc1C(=O)O , output reported activity change, negative = inhibition.
12.6% (inactive)

Input CC(C)(C)OC(=O)[C@H]([C@@H]1N[C@@H](C(=O)O)C(C)(C)S1)N1C(=O)c2ccccc2C1=O , output reported activity change, negative = inhibition.
-0.34% (inactive)

Input Oc1ccccc1C(Sc1nc2ccccc2s1)Sc1nc2ccccc2s1 , output reported activity change, negative = inhibition.
10.8% (inactive)

Input O[C@H](CN1CCN(c2cccc(Cl)c2)CC1)C(c1ccccc1)c1ccccc1 , output reported activity change, negative = inhibition.
-10.5% [at 38 µM] (inactive)

Input CN(C)CCCN1c2ccccc2Sc2cnccc21 , output reported activity change, negative = inhibition.
6.06% (inactive)
